# TESTED_TARGET: Tyrosine-protein kinase HCK (Homo sapiens, UniProt P08631)
# Sequence (P08631 whole entry, the tested form may be a part): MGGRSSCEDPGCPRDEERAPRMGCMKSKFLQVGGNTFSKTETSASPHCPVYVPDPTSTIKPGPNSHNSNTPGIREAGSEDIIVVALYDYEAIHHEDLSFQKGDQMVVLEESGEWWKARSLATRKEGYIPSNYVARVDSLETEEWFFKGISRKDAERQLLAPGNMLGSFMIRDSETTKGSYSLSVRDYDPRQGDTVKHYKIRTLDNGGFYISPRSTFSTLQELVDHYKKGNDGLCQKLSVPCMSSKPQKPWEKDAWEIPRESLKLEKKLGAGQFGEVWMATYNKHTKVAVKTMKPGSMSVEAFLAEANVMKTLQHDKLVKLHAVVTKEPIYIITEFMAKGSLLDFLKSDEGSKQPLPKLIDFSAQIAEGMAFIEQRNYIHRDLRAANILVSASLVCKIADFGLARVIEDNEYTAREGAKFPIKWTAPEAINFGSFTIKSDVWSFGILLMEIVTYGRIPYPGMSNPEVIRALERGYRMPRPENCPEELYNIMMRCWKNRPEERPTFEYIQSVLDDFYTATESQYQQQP
# ASSAY_NAME: biochemical
REPORTED_PROPERTY: IC50 (nM)
Respond with the bare value in nM.

Exercise: Could you tell me which IC50 is on file for CN1CCN([C@H]2CC[C@H](n3cc(-c4ccc(Oc5ccccc5)cc4)c4c(N)ncnc43)CC2)CC1 ?
Key: 0.43

* * *

# TESTED_TARGET: Tyrosine-protein kinase HCK (Homo sapiens, UniProt P08631)
# ASSAY_NAME: Inhibition of HCK (75 to 526 residues) (unknown origin) expressed in Sf9 insect cells after 120 mins
# CONDITION_NOTES: read-out: IC50
REPORTED_PROPERTY: IC50 (nM)
Provide only the numeric value, understood in nM.

CHEMICAL_STRING | IC50 / nM
CC(C)C[C@H](N[C@H]1CC[C@H](n2cc(-c3ccc(Oc4ccccc4)cc3)c3c(N)ncnc32)CC1)C(N)=O | 210

Exercise: Report IC50 for CC(C)C[C@H](N[C@H]1CC[C@H](n2cc(-c3ccc(Oc4ccccc4)cc3)c3c(N)ncnc32)CC1)C(=O)O please.
Key: 11

Exercise: Would you kindly share the measured IC50 for CCOC(=O)[C@H](CC(C)C)N[C@H]1CC[C@H](n2cc(-c3ccc(Oc4ccccc4)cc3)c3c(N)ncnc32)CC1 ?
Key: 1320

Exercise: Report IC50 for CC(C)C[C@H](N[C@H]1CC[C@H](n2cc(-c3ccc(Oc4ccccc4)cc3)c3c(N)ncnc32)CC1)C(=O)N(C)C please.
Key: 686

Exercise: Given the entry CNC(=O)[C@H](CC(C)C)N[C@H]1CC[C@H](n2cc(-c3ccc(Oc4ccccc4)cc3)c3c(N)ncnc32)CC1 , report its measured IC50.
Key: 111

Where these numbers come from: ChEMBL document CHEMBL4052720
